B1: SLC35F2 (parent)
chain: SFMPLVIKVTSATSVNLGILTADL

Variants of: B1
Test: protein stability index of a GFP-peptide fusion (GPS, HEK-293T) (PSI 1-6); higher = more stable;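 further: lentivirally expressed fusions sorted by FACS into six bins by GFP to DsRed ratio, PSI derived from sequencing read proportions per bin multiplied by bin number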
Details: c terminus: a fixed tail appended
Everything with protein stability index lower than 3 is Criterion not met; everything else, including exactly 3, is Criterion met.

Completed entries (count: 5):
biopolymer_sequence	group
IFMPLVIKVTSATSVNLGILTADL	Criterion met
SFMPLVIKVISATSVNLGILTADL	Criterion met
SFMPLVIKVTSATSVNIGILTADL	Criterion not met
SFMPLVIKVTSATSVNLGILTADS	Criterion not met
SFMPLVIKVTSATSVNGGILTADL	Criterion not met

Check the entry SFMDLVIKVTSATSVNLGILTADL : does protein stability index equal or exceed 3?
Criterion not met

Check the entry SFMPLVIKVTSAMSVNLGILTADL : does protein stability index equal or exceed 3?
Criterion not met

Taken from the supplement of paper PMC10567573.
